Values were extracted from ChEMBL document CHEMBL1944548.

# test name: Cmax in BALB/c mouse at 75 mg/kg, po by LC-MS/MS analysis
# Type: ADME, organism-based
# Design: dose 75 mg/kg, route oral
# details: in vivo
reported metric: Cmax (ng/mL)
Lab book: enter the figure in ng/mL, no units written.

In plain terms, CN1C/C=C/CCOc2cccc(c2)-c2ccnc(n2)Nc2cccc(c2)C1 has a documented Cmax of 1030

###

# test name: Half life in mouse liver microsomes at 5 uM by LC-MS/MS analysis
# Assay type: ADME, Microsome
reported metric: half-life at 5 µM (min)
Write down the numeric answer in min and omit the unit.

// half-life at 5 µM lookup, compound = CN1C/C=C/CCOc2cccc(c2)-c2ccnc(n2)Nc2cccc(c2)C1 , result: 12
